Quick list: % inhibition apPOL 180' 20 per entry.
# Measured on: UniProt Q8ILY1
# Method notes: Fluorescence-based high-throughput DNA polymerase assay (molecular beacon), primary screen and dose-response
# Format: biochemical
# Assay conditions: DRC-1; read at 180'; concentration 20

{"Molecule": "CC(C)CC(C(=O)O)N1C(=O)C2C3C=CC(C2C1=O)C1C(=O)N(C(CC(C)C)C(=O)O)C(=O)C31 (stereo not drawn) [KU0193449]", "% inhibition apPOL 180' 20 (%)": 29.0446}
{"Molecule": "C#CC(C=CC)OC(=O)c1ccccc1C(=O)O (stereo not drawn) [Molecule 61, CC=CC(OC(=O)c1ccccc1C(=O)O)C#C]", "% inhibition apPOL 180' 20 (%)": 14.9685}
{"Molecule": "Cc1cc2[nH]c(C(=O)Nc3ccc(F)cc3)c(CN3CCOCC3)c2s1 [Molecule 60]", "% inhibition apPOL 180' 20 (%)": 14.1958}

###

# Measured on: P. falciparum apicoplast DNA polymerase (Pf-apPOL) (Plasmodium falciparum, UniProt Q8ILY1)
# Sequence (Q8ILY1 entry or part of it): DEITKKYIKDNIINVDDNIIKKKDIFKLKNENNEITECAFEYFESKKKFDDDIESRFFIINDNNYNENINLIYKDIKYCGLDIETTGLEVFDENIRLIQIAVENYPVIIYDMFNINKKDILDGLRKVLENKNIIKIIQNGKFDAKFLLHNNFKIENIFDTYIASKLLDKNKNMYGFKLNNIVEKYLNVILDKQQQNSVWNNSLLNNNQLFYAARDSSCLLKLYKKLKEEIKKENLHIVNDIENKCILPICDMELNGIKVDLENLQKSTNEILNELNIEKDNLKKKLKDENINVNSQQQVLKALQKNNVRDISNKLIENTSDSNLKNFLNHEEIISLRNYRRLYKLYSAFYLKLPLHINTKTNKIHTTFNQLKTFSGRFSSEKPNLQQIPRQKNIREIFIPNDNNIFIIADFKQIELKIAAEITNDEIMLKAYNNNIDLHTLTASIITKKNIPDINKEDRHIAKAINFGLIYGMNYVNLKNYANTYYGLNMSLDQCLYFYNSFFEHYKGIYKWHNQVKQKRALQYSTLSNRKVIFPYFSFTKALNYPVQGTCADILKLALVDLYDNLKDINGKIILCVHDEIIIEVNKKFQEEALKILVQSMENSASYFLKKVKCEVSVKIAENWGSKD
# Method notes: Fluorescence-based high-throughput DNA polymerase assay (molecular beacon), primary screen and dose-response
# Format: biochemical
# Assay conditions: DRC-2; read at 180'; concentration 5
# Excerpt: The HT assay employs a molecular beacon, a stem-loop DNA template with a Cy3 dye and the Black Hole Quencher on the 3′ and 5′ ends of the DNA, respectively. Pf-apPOL concentration is based on a calculated absorptivity of ε280 = 56750 M^−1 cm^−1. […] To identify apPOL inhibitors we utilised our previously developed high-throughput DNA polymerase assay. […] The assay accurately recapitulates the kinetic behaviour of apPOL, as measured through more conventional low-throughput gel-based assays. […]
Observable: % inhibition apPOL 180' 5

{"Compound": "Nc1cc(Oc2ccc(O)c(N)c2)ccc1O", "Recorded value": "26%"}
{"Compound": "Cn1nc(-c2nc(-c3ccccc3)no2)c2c1CCN(C(=O)Cc1cccs1)C2", "Recorded value": "6%"}
{"Compound": "Cn1nc(-c2nnc(-c3ccccc3F)o2)c2c1CCN(C(=O)c1ccccc1Cl)C2", "Recorded value": "21%"}
{"Compound": "CC(C)CC(C(=O)O)N1C(=O)C2C3C=CC(C2C1=O)C1C(=O)N(C(CC(C)C)C(=O)O)C(=O)C31 (stereo not shown)", "Recorded value": "-2.57%"}
{"Compound": "CC(=O)Nc1cc(C(=O)c2cccs2)nn(-c2ccc(Cl)cc2)c1=O", "Recorded value": "0.65%"}
{"Compound": "CC(=O)OCC1=C(C(=O)[O-])N2C(=O)[C@@H](NC(=O)Cc3cccs3)[C@H]2SC1.[Na+]", "Recorded value": "-7%"}
{"Compound": "Cc1cc2[nH]c(C(=O)Nc3ccc(F)cc3)c(CN3CCOCC3)c2s1", "Recorded value": "-0.247%"}
{"Compound": "Cc1ccsc1Cn1c(C)ccc1C", "Recorded value": "-6%"}
{"Compound": "N#Cc1c(O)nc(N2CCCCC2)nc1-c1ccc2c(c1)OCO2", "Recorded value": "17%"}
{"Compound": "Cc1nc(C)c2c(n1)N(CC1CCCCC1)C(=O)CC2", "Recorded value": "26%"}
{"Compound": "COc1ccc(C2CC(c3ccc(Cl)cc3Cl)Nc3nc(N)nn32)cc1OC (stereo not shown)", "Recorded value": "21%"}
{"Compound": "COc1ccccc1CC(=O)N1CCc2c(nc3cc(-c4ccccc4Cl)[nH]n3c2=O)C1", "Recorded value": "12%"}
{"Compound": "CCCc1ccc(Oc2coc3cc(OC)ccc3c2=O)cc1", "Recorded value": "8%"}

Cited source: paper PMC9090415
